For each entry below, report its pKd value.
target: proMMP9(20-445;ΔFnII) (SEQ ID NO:6) (Homo sapiens, UniProt P14780, DEL216-390); construct: amino acid pairs including: 29-215/391-444, 67-215/391-444, and 20-215/391-445, respectively; start methionine (N); assay: ThermoFluor binding assay with proMMP9(20-445;ΔFnII)
Sequence (P14780 with tags, fused parts or gaps DEL216-390): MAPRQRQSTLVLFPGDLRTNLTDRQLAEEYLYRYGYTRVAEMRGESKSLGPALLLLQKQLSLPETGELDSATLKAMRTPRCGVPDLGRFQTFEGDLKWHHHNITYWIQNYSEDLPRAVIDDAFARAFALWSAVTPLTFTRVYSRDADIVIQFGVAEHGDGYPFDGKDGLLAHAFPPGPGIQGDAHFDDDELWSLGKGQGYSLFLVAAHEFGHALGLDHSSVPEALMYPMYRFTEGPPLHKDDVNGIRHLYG
API: returns pKd as number; meaning -log10 of concentration in mol/L.

Inquiry: Please give measured pKd of the following entry: CNc1nc(C)c(-c2csc(Nc3ccccc3OC)n2)s1 [Example 35]
Reply text: 4.99

Inquiry: Look up and report measured pKd for this entry: COc1c(Cl)cccc1Nc1nc(-c2sc(N)nc2C)cs1 [Example 7]
Reply text: 4.89

====

Task for the reader: assign each of the following compounds its reported Kd.
Molecular target: proMMP9(20-445;ΔFnII) (SEQ ID NO:6) (Homo sapiens, UniProt P14780, DEL216-390)
Construct: amino acid pairs including: 29-215/391-444, 67-215/391-444, and 20-215/391-445, respectively; start methionine (N)
Experiment: ThermoFluor binding assay with proMMP9(20-445;ΔFnII)
Procedure: The experiments were carried out using instruments available from Johnson & Johnson Pharmaceutical Research & Development, LLC. TF dye used in all experiments was […] (1,8-ANS) (Invitrogen: A-47). Columns 12 and 24 were used as DMSO reference and contained no compound. […] Following compound dispense, protein and dye solutions were added to achieve the final assay volume of 3 μL. […]

Inquiry: State its Kd for this compound: COc1ccc(OC)c(Nc2nc(-c3cccnc3)cs2)c1
Reply text: > 65 µM

Inquiry: Fill in Kd for record COc1ccc(F)cc1Nc1nc(-c2sc(C)nc2C)c(C)s1
Reply text: > 77 µM

Inquiry: Return reported Kd. Input compound: CC(=O)Nc1nc(C)c(-c2csc(Nc3ccccc3C(F)(F)F)n2)s1
Reply text: > 9.2 µM

Inquiry: Hello, please tell me recorded Kd for this one: COc1ccc(F)cc1Nc1nc(-c2sc(C)nc2C)cs1
Reply text: > 95 µM

Inquiry: Return Kd (reported value) for this compound: COc1ccccc1Nc1nc(-c2sc(NC(=O)c3ccccc3)nc2C)cs1
Reply text: > 14 µM

Inquiry: Give me measured Kd, please, for this compound: CC(C)Oc1ccccc1Nc1nc(-c2cccnc2)cs1
Reply text: > 95 µM

====

molecular target: full-length proMMP9(1-707) activation by catalytic MMP3 (Homo sapiens, UniProt P14780, R574P); test: ProMMP9/MMP3 DQ Gelatin Activation Assay;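 also: readout is fluorescence of quenched fluorescein gelatin cut by activated MMP9, 30 min activation at 37 °C, inhibition relative to DMSO-only controls with EDTA as blank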; assay type: biochemical; design: made in house; host or cells: COS-1 (proMMP9); E. coli (MMP3); conditions: proMMP9 from COS-1 cells; read-out: ProMMP9/MMP3 DQ gel, IC50
Sequence (P14780 20-707 R574P): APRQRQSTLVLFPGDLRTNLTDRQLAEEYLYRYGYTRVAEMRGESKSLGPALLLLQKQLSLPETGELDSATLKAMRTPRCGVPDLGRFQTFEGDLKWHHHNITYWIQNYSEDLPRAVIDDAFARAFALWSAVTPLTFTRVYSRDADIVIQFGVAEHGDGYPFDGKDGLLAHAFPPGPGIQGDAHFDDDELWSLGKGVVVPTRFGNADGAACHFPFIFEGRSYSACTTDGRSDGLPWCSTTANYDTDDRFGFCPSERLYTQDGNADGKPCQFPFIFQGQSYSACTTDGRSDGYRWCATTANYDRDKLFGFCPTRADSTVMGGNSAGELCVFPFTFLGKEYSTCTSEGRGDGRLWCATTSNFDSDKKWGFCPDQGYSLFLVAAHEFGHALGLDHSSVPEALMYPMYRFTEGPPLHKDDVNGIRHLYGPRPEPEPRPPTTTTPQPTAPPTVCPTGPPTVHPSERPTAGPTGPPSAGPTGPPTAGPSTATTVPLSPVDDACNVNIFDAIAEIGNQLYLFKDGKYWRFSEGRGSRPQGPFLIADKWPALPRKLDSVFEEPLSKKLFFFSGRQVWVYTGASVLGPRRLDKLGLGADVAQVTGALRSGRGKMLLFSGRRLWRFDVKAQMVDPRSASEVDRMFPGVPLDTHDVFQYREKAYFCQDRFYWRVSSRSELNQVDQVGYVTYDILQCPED
Kindly state IC50 for each of the entries shown.

Inquiry: Please list IC50 recorded for the molecule COc1ccccc1Nc1nc(-c2sc(-c3cnccn3)nc2C)cs1
Reply text: 13.8 µM

Inquiry: Report IC50, nothing else, for this molecule: COc1ccccc1Nc1nc(-c2cccnc2)cs1
Reply text: 13 µM

Inquiry: Give IC50 for COc1ccccc1Nc1nc(-c2c(C)nc3ccccn23)cs1
Reply text: 8.6 µM

====

Please provide measured Kd for the entries that follow.
Target: proMMP9(67-444;ΔFnII) (SEQ ID NO:5) (Homo sapiens, UniProt P14780, DEL216-390)
Construct: amino acid pairs including: 29-215/391-444, 67-215/391-444, and 20-215/391-445, respectively; start methionine (N); made in house; host or cells: E. coli BL21(DE3) RIL
Sequence (P14780 with tags, fused parts or gaps DEL216-390): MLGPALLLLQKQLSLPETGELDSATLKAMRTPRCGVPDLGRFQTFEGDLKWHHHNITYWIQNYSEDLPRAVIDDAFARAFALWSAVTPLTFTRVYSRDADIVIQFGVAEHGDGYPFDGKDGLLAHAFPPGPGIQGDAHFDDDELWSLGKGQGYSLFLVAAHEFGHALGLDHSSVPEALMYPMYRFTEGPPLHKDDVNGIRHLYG
Test: ThermoFluor binding assay with proMMP9(67-444;ΔFnII)
Experimental: The experiments were carried out using instruments available from Johnson & Johnson Pharmaceutical Research & Development, LLC. TF dye used in all experiments was […] (1,8-ANS) (Invitrogen: A-47). Columns 12 and 24 were used as DMSO reference and contained no compound. […] Following compound dispense, protein and dye solutions were added to achieve the final assay volume of 3 μL. […]

Inquiry: Name the recorded Kd of the compound listed here: COc1ccccc1Nc1nc(-c2sc(N(C)C(C)=O)nc2C)cs1
Reply text: > 11 µM

Inquiry: Provide measured Kd value, entry: Cc1nc(C)c(-c2csc(Nc3cccc(C(N)=O)c3)n2)s1
Reply text: > 81 µM

Inquiry: Could you please provide reported Kd for COc1ccccc1Nc1nc(C2(C)CC3(CC(C)(C)OC3=O)C(=O)O2)cs1 (stereo not shown) ? Thanks!
Reply text: > 15 µM

Inquiry: Give the reported value of Kd for this record: COc1ccccc1Nc1nc(C2(C)CC3(CC(C)OC3=O)C(=O)O2)cs1 (stereo not shown)
Reply text: 8.7 µM

Inquiry: Determine from records and report Kd for COc1ccccc1Nc1nc(-c2sc(-c3cnccn3)nc2C)cs1
Reply text: > 95 µM

Inquiry: Kindly indicate its recorded Kd. Item: COc1ccc(F)cc1Nc1nc(-c2cccnc2)cs1
Reply text: 8.9 µM

Inquiry: Specify reported Kd for the compound shown: Cc1nc(C)c(-c2csc(Nc3cc(F)ccc3OC(C)C)n2)s1
Reply text: > 95 µM
